Recorded pEC50, one value per entry.
system: THP-1; assay: Cytotoxicity against human THP1 cells after 48 hrs by MTT assay; format: cell-based; details: THP-1, 48 h
pEC50: −log10 of the molar value.
measured.property: pEC50

smiles.input: c1cc2cc(c1)C[n+]1ccc(cc1)NCCOCCNc1cc[n+](cc1)C2
subject.of.test: THP-1
obs.value: 3.71

smiles.input: c1c[n+]2ccc1NCCCCCNc1cc[n+](cc1)CCCCC2
subject.of.test: THP-1
obs.value: 3.81

smiles.input: c1cc2cc(c1)CNc1cc[n+](cc1)CCCCC[n+]1ccc(cc1)NC2
subject.of.test: THP-1
obs.value: 3.72
